Reported log10(ND50) by item:
TGT: T1, human IL-1α (human, UniProt P01583 113-271)
T1 sequence (looked up): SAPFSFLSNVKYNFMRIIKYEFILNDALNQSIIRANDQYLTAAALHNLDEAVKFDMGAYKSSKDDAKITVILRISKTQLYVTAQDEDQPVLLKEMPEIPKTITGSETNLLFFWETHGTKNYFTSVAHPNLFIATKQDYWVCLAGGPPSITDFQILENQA
ASSAY_PROTOCOL: cell-based or functional assay
Plainly stated, the numbers are log10 of ND50 given in nM.

Incoming: Name the recorded log10(ND50) for ABT1-122-750x (other) VL: DIQMTQSPSSLSASVGDRVAITCSASQHIWTEISWYQQKPGKAPKLLIYGSASRQKGVPSRFSGSGSGTDFTLTISSLQPEDFATYYCKQFAYFPNTFGQGTKVEIKR .
Outgoing: -0.15

Incoming: Cool, now ABT1-95-148 (other, VK dAb) VL: DIQMTQSPSSLSASVGDRVTITCRASQTIVRNLRWYQQKPGKAPKLLIYSSSYLEPGVPSRFSGSGSGTDFTLTISSLQPEDFATYHCQQGYRWPVTFGQGTKVEIKR
Outgoing: -0.72

Incoming: Also ABT1-95-31 (other, VK dAb) VL: DIQMTQSPSSLSASVGDRVTITCRASQPIVRNLRWYQQKPGKAPKLLIYSSSYLEPGVPSRFSGSGSGTDFTLTISSLQPEDFATYYCQQGYLWPVTFGQGTKVEIKR ?
Outgoing: 0.52

Incoming: What do you have for ABT1-95-136 (other) VL: DIQMTQSPSSLSASVGDRVTITCRASQPIVRNLRWYQQKPGKAPKLLIYSSSYLEPGVPSRFSGSGSGTDFTLTISSLHPEDLATYHCQQGYGWPVTFGQGTKVEIKR ?
Outgoing: -1.00

Incoming: Repeat with ABT1-93 (other, VH dAb) VH: EVQLLESGGGLVQPGGSLRLSCAASGFTFNEYNMVWVRQAPGKGLEWVSSISGGGGFTYYADSVKGRFTISRDNSKNTLYLQMNSLRAEDTAVYYCAKPLRGFVCSQHCSFDYWGQGTLVTVSS
Outgoing: 3.70

Incoming: Try the binder ABT1-95-173 (other) VL: DIQMTQSPSSLSASVGDRVTISCRASRPIVRNLRWYQQKPGKAPKLLIYSSSYLEPGVPSRFSGSGSGTDFTLTISSLQPEDFATYHCRQGYRWPVTFGQGTKVEIKR
Outgoing: -0.82

Incoming: ABT1-149 (other) VL: DIQMTQSPSSLSASVGDRVTITCRASQSISSYLNWYQQKPGKAPKLLIGGLSGLQSGVPSRFSGSGSGTDFTLTISSLQPEDFATYYCMQWWRWPSTFGQGTKVEIKRAAAEQKLISEED , same question.
Outgoing: 2.00

Incoming: Another binder to check: ABT1-95-133 (other) VL: DIQMTQSPSSLSASVGDRVTITCRASQPIVRNLRWYQQKPGKAPKLLIYSSSYLEPGVPSRFSGSGSGTDFTLTISSLQPEDFATYHCRQGYRWPVTFGQGTKVEIKR
Outgoing: -1.30
